System: Escherichia coli
assay-overview: Antibacterial activity Escherichia coli at 40 ug/disc after 24 hrs by agar disc diffusion method
Type: functional
condition-parameters: read-out: IZ
zone of inhibition at 40 µg/disc of 3 mm or higher: 1.0. Under 3 mm: 0.0.

Take a look at these entries with their results.
[[record]]
compound = "CCOP(=O)(OCC)C(NNC(=O)c1nn(C)c2ccccc12)c1ccccc1Br (stereo not given)"
system_name = "Escherichia coli"
label = 0.0

[[record]]
compound = "CCOP(=O)(OCC)C(NNC(=O)c1nn(C)c2ccccc12)c1cccc(F)c1 (stereo not given)"
system_name = "Escherichia coli"
label = 1.0

[[record]]
compound = "CCOP(=O)(OCC)C(NNC(=O)c1nn(C)c2ccccc12)c1ccccc1 (stereo not given)"
system_name = "Escherichia coli"
label = 0.0


Kindly consider the entry below.
stdin: Textbook exercise: given the entry NC[C@H]1O[C@H](O[C@H]2[C@H](O)[C@@H](O[C@H]3O[C@H](CO)[C@@H](O)[C@H](N)[C@H]3O)[C@H](N)C[C@@H]2N)[C@H](O)[C@@H](O)[C@@H]1O [KANAMYCIN] , state whether its zone of inhibition at 40 µg/disc is greater than or equal to 3 mm.
stdout: 1.0
